Kindly supply the reported MFC values for the records listed here.
Test system: Cryptococcus neoformans
Test: Antimicrobial activity against Cryptococcus neoformans ATCC 90113 by CLSI method
Format: functional
Answers are plain numbers, in mg/L.

Brc1ccc(Sc2cc3ccccc3[n+](CCCCCc3ccccc3)c2)cc1.[I-]    10
Cc1ccccc1Sc1cc2ccccc2[n+](CCCCCc2ccccc2)c1.[I-]    20
Cc1ccccc1Sc1cc2ccccc2[n+](CCCCCC2CCCCC2)c1.[I-]    1.3
Cc1cccc(Sc2cc3ccccc3[n+](CCCCCc3ccccc3)c2)c1.[I-]    20

Turning now to a further record.
Request: Please look up its MFC: N#Cc1ccc(Sc2cc3ccccc3[n+](CCCCCC3CCCCC3)c2)cc1.[I-]
Response: 5

====

System: Candida albicans
Assay: Antimicrobial activity against Candida albicans ATCC 90028 by alamar blue assay
Format: functional, organism-based
Assign IC50 to each entry below.
One number for each entry, in µg/mL.

Brc1cccc(Sc2cc3ccccc3[n+](CCCCCc3ccccc3)c2)c1.[I-]    10

Hi team, please reply with IC50 for each item in this list.
1. N#Cc1ccc(Sc2cc3ccccc3[n+](CCCCCC3CCCCC3)c2)cc1.[I-]
2. FC(F)(F)c1cccc(Sc2cc3ccccc3[n+](CCCCCc3ccccc3)c2)c1.[I-]
3. Brc1ccccc1Sc1cc2ccccc2[n+](CCCCCc2ccccc2)c1.[I-]
4. Brc1ccc(Sc2cc3ccccc3[n+](CCCCCc3ccccc3)c2)cc1.[I-]
5. FC(F)(F)c1ccccc1Sc1cc2ccccc2[n+](CCCCCC2CCCCC2)c1.[I-]
6. Brc1ccccc1Sc1cc2ccccc2[n+](CCCCCC2CCCCC2)c1.[I-]

Response:
6.2
14
10
8.5
1.1
1.4

====

Test system: Candida albicans
Experiment: Antimicrobial activity against Candida albicans ATCC 90028 by alamar blue assay
Assay type: functional, organism-based
Exercise: for every item that follows, state its recorded IC50.

The following molecules have reported results that may help.
Cc1ccccc1Sc1cc2ccccc2[n+](CCCCCc2ccccc2)c1.[I-]    > 20 µg/mL
Fc1ccc(Sc2cc3ccccc3[n+](CCCCCc3ccccc3)c2)cc1.[I-]    > 20 µg/mL
N#Cc1cccc(Sc2cc3ccccc3[n+](CCCCCC3CCCCC3)c2)c1.[I-]    6.7 µg/mL
COc1cccc(Sc2cc3ccccc3[n+](CCCCCC3CCCCC3)c2)c1.[I-]    2.7 µg/mL

Request: What value of IC50 has been reported for the following molecule? COc1cccc(Sc2cc3ccccc3[n+](CCCCCc3ccccc3)c2)c1.[I-]
Response: > 20 µg/mL

====

Tested on: Pichia kudriavzevii
Assay: Antimicrobial activity against Candida krusei ATCC 6258 by alamar blue assay
Format: functional, organism-based
Would you mind telling me the reported IC50 of each entry?
One number for each entry, in µg/mL.

Consider the reported IC50 for these compounds:
FC(F)(F)c1ccccc1Sc1cc2ccccc2[n+](CCCCCC2CCCCC2)c1.[I-]    1.1
FC(F)(F)c1cccc(Sc2cc3ccccc3[n+](CCCCCC3CCCCC3)c2)c1.[I-]    1.2
Cc1cccc(Sc2cc3ccccc3[n+](CCCCCC3CCCCC3)c2)c1.[I-]    0.4
FC(F)(F)c1ccc(Sc2cc3ccccc3[n+](CCCCCC3CCCCC3)c2)cc1.[I-]    1.3
Cc1ccc(Sc2cc3ccccc3[n+](CCCCCC3CCCCC3)c2)cc1.[I-]    0.5

For every record below, what is its IC50?
1. COc1cccc(Sc2cc3ccccc3[n+](CCCCCC3CCCCC3)c2)c1.[I-]
2. N#Cc1ccc(Sc2cc3ccccc3[n+](CCCCCC3CCCCC3)c2)cc1.[I-]
3. Cc1ccccc1Sc1cc2ccccc2[n+](CCCCCC2CCCCC2)c1.[I-]
4. Fc1cccc(Sc2cc3ccccc3[n+](CCCCCC3CCCCC3)c2)c1.[I-]
5. Oc1ccc(Sc2cc3ccccc3[n+](CCCCCC3CCCCC3)c2)cc1.[I-]
6. N#Cc1cccc(Sc2cc3ccccc3[n+](CCCCCC3CCCCC3)c2)c1.[I-]
7. Oc1cccc(Sc2cc3ccccc3[n+](CCCCCC3CCCCC3)c2)c1.[I-]

Response:
0.6
2.3
0.6
0.3
1.5
1.4
5.1

Quick batch: IC50 for everything below.
1. C[C@@H]1[C@H](O)[C@@H](C)/C=C/C=C/C=C/C=C/C=C/C=C/C=C/[C@H](O[C@@H]2O[C@H](C)[C@@H](O)[C@H](N)[C@@H]2O)C[C@@H]2O[C@](O)(C[C@@H](O)C[C@@H](O)[C@H](O)CC[C@@H](O)C[C@@H](O)CC(=O)O[C@H]1C)C[C@H](O)[C@H]2C(=O)O
2. N#Cc1ccccc1Sc1cc2ccccc2[n+](CCCCCC2CCCCC2)c1.[I-]
3. Brc1ccccc1Sc1cc2ccccc2[n+](CCCCCC2CCCCC2)c1.[I-]
4. Oc1ccccc1Sc1cc2ccccc2[n+](CCCCCC2CCCCC2)c1.[I-]

Response:
[0.9, 0.7, 0.3, 4.4]
